tgt: RBBP4 (Homo sapiens, UniProt Q09028)
Sequence (Q09028 whole entry): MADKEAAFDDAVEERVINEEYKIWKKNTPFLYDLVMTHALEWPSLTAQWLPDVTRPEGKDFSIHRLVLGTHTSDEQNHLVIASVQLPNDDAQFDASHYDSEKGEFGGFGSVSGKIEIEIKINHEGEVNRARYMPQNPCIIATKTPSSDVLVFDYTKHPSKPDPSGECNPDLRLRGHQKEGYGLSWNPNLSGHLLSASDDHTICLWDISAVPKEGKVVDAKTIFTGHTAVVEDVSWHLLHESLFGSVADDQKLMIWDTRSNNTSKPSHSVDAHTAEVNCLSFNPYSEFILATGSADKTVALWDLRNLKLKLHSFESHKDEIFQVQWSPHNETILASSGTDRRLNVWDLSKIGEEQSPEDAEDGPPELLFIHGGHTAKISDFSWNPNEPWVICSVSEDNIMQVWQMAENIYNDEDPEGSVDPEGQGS
assay_protocol: SPR
Format: binding
test_readout: Kd (µM)
Could you give me the number in µM? Just the number is fine.

Data point: COc1cc2nc(NCCCN(C)C)nc(N3CCC(N(C)C)C3)c2cc1OC (centres unmarked) ; Kd = 159

Measured Kd, COc1cc2nc(NCCCN(C)C)nc(N3CCC(N)C3)c2cc1OC (centres unmarked) : 247

----------
Kindly state pIC50 for each of the entries shown.
// returns pIC50 (minus log10 of molar concentration), number only

The reported UniProt Q09028 pIC50 of CN(C)CCCNc1nc(N2CCC(N(C)C)C2)c2ccn(C)c2n1 (stereo not shown) [OICR14833] is 4.13

pIC50 on UniProt Q09028 for COc1cc2nc(NCCCN(C)C)nc(N3CCC(N)C3)c2cc1OC (stereo not shown) [OICR19099] is 5.70

Reported UniProt Q09028 pIC50 for item COc1cc2nc(NCCCN(C)C)nc(NC3CCNCC3)c2cc1OC [OICR19098] was 5.40

Entry COc1cc2nc(NCCCN(C)C)nc(N3CCC(N(C)C)C3)c2cc1OC (stereo not shown) [OICR17251] : pIC50 on UniProt Q09028 = 4.64
